TARGET_UNDER_TEST: rat pituitary cells (Rattus norvegicus, UniProt O08725)
Sequence (O08725 whole entry): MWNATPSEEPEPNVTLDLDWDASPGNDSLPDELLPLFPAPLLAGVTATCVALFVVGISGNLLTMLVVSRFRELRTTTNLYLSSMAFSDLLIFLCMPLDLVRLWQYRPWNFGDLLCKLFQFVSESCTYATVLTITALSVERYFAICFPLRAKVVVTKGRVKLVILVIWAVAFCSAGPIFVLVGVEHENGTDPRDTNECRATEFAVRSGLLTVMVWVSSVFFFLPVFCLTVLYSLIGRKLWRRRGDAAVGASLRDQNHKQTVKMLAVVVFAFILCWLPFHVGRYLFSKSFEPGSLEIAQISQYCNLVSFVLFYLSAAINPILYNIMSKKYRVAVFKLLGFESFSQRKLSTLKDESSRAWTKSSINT
ASSAY_CONDITIONS: read-out: PIT Cell EC50; Table IV, formula III compounds; GH release, 15 min incubation
Non-standard residues stand in square brackets, D forms with d. Residues, ends and D or L forms follow the SMILES beside them. dNMe2Nal = CN[C@H](Cc1ccc2ccccc2c1)C(=O)O; 2Nal = N[C@@H](Cc1ccc2ccccc2c1)C(=O)O; d2Nal = N[C@H](Cc1ccc2ccccc2c1)C(=O)O; Inp = O=C(O)C1CCNCC1; Ava = NCCCCC(=O)O; GABA = NCCCC(=O)O
Consider the following compounds; for each one, report its pEC50.
Numbers only, as −log10 of the molar value.

# count of solved cases: 3
>>> endpoint_result("CN(C(=O)CCCN)[C@H](Cc1ccc2ccccc2c1)C(=O)N[C@H](Cc1ccc2ccccc2c1)C(=O)N[C@@H](Cc1ccccc1)C(N)=O [(Ab) nmb b F amide] (H-[GABA][dNMe2Nal][d2Nal]F-NH2)")
9.70
>>> endpoint_result("NC(=O)[C@H](Cc1ccc2ccccc2c1)NC(=O)[C@@H](Cc1ccc2ccccc2c1)NC(=O)[C@@H](Cc1ccc2ccccc2c1)NC(=O)C1CCNCC1 [(inip) b b B amide] (H-[Inp][d2Nal][d2Nal][2Nal]-NH2)")
10.00
>>> endpoint_result("O=C(N[C@H](Cc1ccc2ccccc2c1)C(=O)N[C@H](Cc1ccc2ccccc2c1)C(=O)NC1CCNCC1)C1CCNCC1")
8.57

Would you kindly look at the next entry?
Exam item: Tell me pEC50 of NCCCCC(=O)N[C@H](Cc1ccc2ccccc2c1)C(=O)N[C@H](Cc1ccc2ccccc2c1)C(=O)N[C@@H](Cc1ccccc1)C(N)=O [(Ava) b b F amide] (H-[Ava][d2Nal][d2Nal]F-NH2) when tested on rat pituitary cells (Rattus norvegicus, UniProt O08725).
Marked response: 7.77
